# reported self-splicing fitness (ln); entries follow
- measurement-notes: self-splicing fitness, log relative to wild type (ln ratio); higher = more splicing; Tetrahymena group I intron in knt gene, E. coli kanamycin selection, DiMSum; sequences stand for … in CUCUCU…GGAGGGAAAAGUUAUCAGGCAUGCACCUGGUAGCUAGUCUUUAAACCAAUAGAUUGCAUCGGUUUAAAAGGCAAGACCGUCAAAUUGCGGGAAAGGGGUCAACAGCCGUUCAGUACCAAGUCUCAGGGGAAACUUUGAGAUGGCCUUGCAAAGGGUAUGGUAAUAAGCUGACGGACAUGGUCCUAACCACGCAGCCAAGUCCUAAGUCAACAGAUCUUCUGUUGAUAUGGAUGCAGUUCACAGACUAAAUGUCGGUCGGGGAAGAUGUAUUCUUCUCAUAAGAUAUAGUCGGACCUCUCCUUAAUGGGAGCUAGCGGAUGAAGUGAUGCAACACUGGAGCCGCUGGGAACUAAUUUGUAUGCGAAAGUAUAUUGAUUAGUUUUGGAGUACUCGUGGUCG;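 also: selection with 25 µg/mL kanamycin versus none on LB agar overnight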
- test-conditions: 37 °C
property-label: self-splicing fitness (ln)

AUACAGCAAUAUUACGGAAG = -2.21
CUAAAGCAAUAUUACGCGCG = -0.176
CUCGAGCAAUAUUACGCUAU = -2.8
CUUCAGCAAUAUUACGUUUU = -2.46
GUUCAGCAAUAUUACGGGGU = -1.73
CGAUAGCAAUAUUACGCAAG = -0.614
CAAAAGCAAUAUUACGAUGU = -1.66
UCUAAGCAAUAUUACGAAAG = -2.03
